Sourced from paper PMC9482650

Biological target: T1, SNTB1, Q13884
T1 sequence (Q13884 107-205, limits assumed, looked up): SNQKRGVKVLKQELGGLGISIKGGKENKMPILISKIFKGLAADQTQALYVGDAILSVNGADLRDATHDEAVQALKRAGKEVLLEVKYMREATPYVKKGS
Assay: holdup assay
Design: key: below the threshold = too weak to quantify, mostly under pKd 3.1 to 4
Settings: plain residues with an end cap or a label only (N-terminal biotin on a linker: ttds)
Recorded pKd values for a group of binders are listed next.
Reply briefly: the number, and no unit.

Sample answers from the record:
1. TVASEKESVM [SLC1A5, Q15758] :: 4.07
2. VLRLQSETSV [VANGL1, Q8TAA9] :: 4.57
3. STLTIFETAL [ABCC4, O15439] :: 5.05

Here's the next entry for you.
*Q* Give a short answer stating reported pKd for SSRTRRETQL [HPV16-E6, P03126] .
*A* 4.92
